B1: ADD1 (parent)
chain: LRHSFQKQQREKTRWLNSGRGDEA

# Variants of: B1
# ASSAY_OVERVIEW: protein stability index of a GFP-peptide fusion (GPS, HEK-293T) (PSI 1-6); higher = more stable;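 further: lentivirally expressed fusions sorted by FACS into six bins by GFP to DsRed ratio, PSI derived from sequencing read proportions per bin multiplied by bin number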
# STUDY_CONDITIONS: c terminus: a fixed tail appended
For each of the variants below, state its protein stability index.

Please report the measured protein stability index for `D22L` 2.71

Kindly indicate its recorded protein stability index. Item: `F5Y` 3.71

Provide only the value of recorded protein stability index for `H3W` 2.28

Return value of protein stability index for input `R20F` , no commentary. 3.21

Please look at this variant and report its protein stability index: `R10A` 4.17

Give recorded protein stability index. `F5E` 4.71

Quick one: give measured protein stability index for `G19K` 3.69

Supply reported protein stability index belonging to this variant: `R14N` 3.58

Query protein stability index for `R10V` 3.48

Give a short answer stating reported protein stability index for `K12V` . 3.27

Supply recorded protein stability index for `L1K` here. 3.62

Look up and report measured protein stability index for this entry: `R14Q` 4.3

Answer with the recorded protein stability index for the variant listed here: `H3T` 3.94

State its protein stability index for this variant: `Q6Y` 2.85

For the variant `R2V` , report protein stability index. 3.11

Using known records, supply protein stability index for `L16D` 4.69

Please give the documented protein stability index of `H3Q` 3.67

Given `L1C` , respond with its protein stability index. 3.23

Identify protein stability index associated with the variant `G21W` 3.03

Kindly indicate its recorded protein stability index. Item: `Q6G` 3.11

Identify measured protein stability index associated with `N17M` 3.05

Quote protein stability index reported for `Q9G` please. 4.15

Output protein stability index of `S18N` 3.96

Using the record for `Q6V` , state its measured protein stability index. 3.56

Give a short answer stating reported protein stability index for `L16K` . 4.22

# return recorded protein stability index for input `F5I` 3.74

Provide protein stability index value for the following variant: `L16H` 3.42

Kindly indicate its recorded protein stability index. Item: `L1M` 3.65

Identify protein stability index associated with the variant `E11D` 4.47

Given the variant `Q9K` , write its reported protein stability index. 3.92

Provide protein stability index value for the following variant: `T13L` 3.54

Identify protein stability index associated with the variant `D22H` 3.94

Using the record for `R2D` , state its measured protein stability index. 5.03

Find the measured protein stability index of `L1P` and report it. 4.04

// fetch protein stability index given entry `Q8E` 3.83

Read off the recorded protein stability index for `A24L` 3.08

Output protein stability index of `F5K` 3.7

Tell me protein stability index reported for `Q8V` 3.48

Please list protein stability index recorded for the variant `N17E` 3.95

Read off the recorded protein stability index for `R20M` 3.78

Return reported protein stability index. Input variant: `D22F` 3.64

Entry `R2F` needs its protein stability index filled in; supply it. 2.99

Tell us which protein stability index value is on record for `L16N` 3.94

Specify reported protein stability index for the variant shown: `N17Y` 2.91

Please indicate protein stability index recorded for `G21N` 3.43

Output measured protein stability index for this item: `E11V` 2.88

Fill in reported protein stability index for this entry: `R20S` 4.12

Quote protein stability index reported for `D22I` please. 2.68

State its protein stability index for this variant: `E23I` 3.24

Name the recorded protein stability index of the item `Q8P` in your answer. 4.13

Using the record for `S4I` , state its measured protein stability index. 2.82

Give reported protein stability index value for `D22S` 3.9

In one line, give reported protein stability index of the entry `R14D` . 3.52

Output measured protein stability index for this item: `D22K` 3.4

For `R10Y` , write its protein stability index. 3.64

// Input: `A24W` . Output its protein stability index only. 1.65

Name the recorded protein stability index of the variant listed here: `Q9I` 3.18

Annotate the variant `R10G` with its measured protein stability index. 3.72

Give recorded protein stability index. `R20K` 4.03

Please report protein stability index for the following variant: `W15S` 4.68

Report protein stability index for `R14F` 3.52

Assign protein stability index to the following record: `E11P` 3.91

Given the variant `G19S` , write its reported protein stability index. 3.81

Tell me protein stability index reported for `S4Q` 3.72

Fill in protein stability index for record `G21Y` 3.01

Supply measured protein stability index of `G21D` in your reply. 4.42

Supply recorded protein stability index for `K7Y` here. 3.51

Specify reported protein stability index for the variant shown: `Q6F` 3.21

Name the recorded protein stability index of the variant listed here: `R20L` 2.24

Identify the reported protein stability index for the following entry. `S4R` 3.21

Identify measured protein stability index associated with `K12L` 3.51

State, in one line, measured protein stability index of `W15G` 4.72

Tell me protein stability index reported for `L1E` 4.34

Provide one value: measured protein stability index of `D22P` 2.83

For the variant `K12F` , report protein stability index. 3.05

Give reported protein stability index value for `R2Q` 3.94

Read the entry `Q9F` and write its reported protein stability index. 2.71

Fill in reported protein stability index for this entry: `K12G` 4.09

Quick one: give measured protein stability index for `L1I` 3.92

Provide only the value of recorded protein stability index for `S4K` 3

Answer with the recorded protein stability index for the variant listed here: `S18L` 3.39

Give the reported protein stability index for this variant. `T13S` 3.36

Let me know recorded protein stability index for `Q9D` , thanks. 4.06

Let me know recorded protein stability index for `L1A` , thanks. 4.57

Provide measured protein stability index value, entry: `F5L` 3.83

Return reported protein stability index. Input variant: `G21Q` 3.49

Supply reported protein stability index belonging to this variant: `Q8M` 3.32

Tell me measured protein stability index for `T13C` please. 3.6

Identify measured protein stability index associated with `Q6K` 3.99

Complete the entry with protein stability index for `Q9N` 3.72

Look up protein stability index of `T13R` and report it. 3.83
